Values compiled from PubChem BioAssay (NCI).

Experiment: NCI Yeast Anticancer Drug Screen. Data for the mlh1 rad18 strain (AID 175)
Conditions: S. cerevisiae mlh1 rad18 strain growth inhibition; at 50.0 µM
Compounds without any hit were thinned out: in the full panel of roughly 79,000, 15% have a hit. Activity calls are given as the source filed them. No stated cut-off is given here; in the data, active means growth inhibition above about 70%; inactive means the rest.
// one of t = active, f = inactive, no free text

Worked cases, answers included:
N#CC(c1c(Cl)cccc1N1CCCCC1)N1CCCCC1 (centres undefined): t
CN(Cc1cc(Cl)cc(Cl)c1O)Cc1c(O)ccc2ccccc12: t
CC(=O)OC1=Cc2ccccc2C(c2ccccc2)c2ccccc21 (centres undefined): f

We now examine a further compound.
Recorded call for O=C1C(=O)C2CC3(CC1N2Cc1ccccc1)OCCO3 ?
t

###

Test: NCI Yeast Anticancer Drug Screen. Data for the bub3 strain (AID 167)
Conditions: S. cerevisiae bub3 mutant strain, at 50.0 µM
Compounds without any hit were thinned out: in the full panel of roughly 79,000, 15% have a hit. Activity calls are given as the source filed them. Rule as the data show it: active = growth inhibition above about 70%; inactive = the rest.
// one of yes = active, no = inactive, no free text

Worked cases, answers included:
CNC(=O)OCC1=CC(=O)C(OC)=C(OC)C1=O: no
O=C(CCBr)NC(=O)Oc1cccc2ccccc12: yes
COc1cc(-c2nn3c(=O)n(-c4ccc(Cl)cc4)c(=O)nc3s2)cc(OC)c1OC: no
[N-]=[N+]=NC1=C(C(=O)c2ccccc2)C(=O)c2cccc3cccc1c23: no
O=C(c1ccccc1)c1ccc2c(c1)CCCC2: no
O=[N+]([O-])c1ccccc1C1CN=NN1c1ccccc1 (stereo unspecified): yes
Cc1ccc(NC(=O)CC2SC(=Nc3ccc(Cl)cc3)NC2=O)cc1C (stereo unspecified): yes
O=[N+]([O-])c1ccc2c(c1)CCc1ccccc1-2: no
O=C(N/N=C/c1ccccc1O)C1Cc2ccccc2C1C(Cl)Cl (stereo unspecified): yes
ClC1CC[N-]CC1.ClC1CC[N-]CC1.[Cl][Pt+2]([Cl])([Cl])[Cl]: yes

We now examine a further compound.
Recorded call for CCOC(=O)c1c(Br)c(-c2ccc(Br)cc2)c(Br)n1C ?
no

###

Reported growth inhibition is given for each of the following compounds.
Assay: NCI Yeast Anticancer Drug Screen. Data for the mlh1 rad18 strain (AID 175)
Settings: S. cerevisiae mlh1 rad18 strain growth inhibition; at 5.0 µM (retest, dose inferred, filed as 0.5); hits give high values
Method: Growth inhibition of yeast strains with defined genetic alterations is measured as a screen for potential anti-cancer activity. Selected strains with alterations in DNA damage repair or cell cycle control were exposed to compounds and growth inhibition was measured relative to vehicle treated controls. The strain used in this assay is mlh1 rad18
The panel holds about 79,000 compounds, 15% with a hit somewhere; the sample as a whole holds those more often.
Numeric only. Scale: %

Record excerpt, results attached:
Cc1nc(Cl)nc(N)c1[N+](=O)[O-]: 6
O=C(OCc1ccccc1)c1ccccc1Cl: 3
O=[N+]([O-])c1c(C=Nc2ccccc2)oc(-c2c(O)ccc3ccccc23)c1-c1c(O)ccc2ccccc12: -2
CCC(=O)OC1=C(Cl)C(=O)c2ccccc2C1=O: 14

Quote growth inhibition reported for Cc1ccc(NC(=S)N(CCC#N)C2CCCCC2)cc1C please.
-27

Quote growth inhibition reported for COc1ccc(/C=C/C(=N/NC(=O)c2ccccc2)C(C)CN(C)C)cc1 (stereo unspecified) please.
-1

###

Reported growth inhibition is given for each of the following compounds.
Experiment: NCI Yeast Anticancer Drug Screen. Data for the mec2-1 strain (AID 157)
Details: S. cerevisiae mec2-1 strain, at 50.0 µM (retest, dose inferred, filed as 5.0), hits give high values
Description: Growth inhibition of yeast strains with defined genetic alterations is measured as a screen for potential anti-cancer activity. Selected strains with alterations in DNA damage repair or cell cycle control were exposed to compounds and growth inhibition was measured relative to vehicle treated controls. The strain used in this assay is mec2-1
Compounds without any hit were thinned out: in the full panel of roughly 79,000, 15% have a hit.
Numeric only. Scale: %

Nc1ccc(Cl)c2ccccc12: 20
O=C(OC12CCCCC1CCCC2)c1ccc([N+](=O)[O-])cc1 (stereo not drawn): 99
Cc1cc(C)c(S(=O)(=O)c2c(C)cc(C)cc2C)c(C)c1: -9
Clc1ccc(CNc2ccc(Cl)c(Cl)c2)cc1: 97
NC(=O)C1C(=O)c2cccc3c2C1(Br)C(Br)CCC3 (stereo not drawn): 100
Cc1ccc(S(=O)(=O)CC2(Br)Cc3ccccc3C2=O)cc1 (stereo not drawn): 99
CC/C(=C(/CC)c1ccc(O)cc1)c1ccc([O-])cc1.CC/C(=C(/CC)c1ccc(O)cc1)c1ccc([O-])cc1.O=C([CH-]C(=O)c1ccccc1)c1ccccc1.O=C([CH-]C(=O)c1ccccc1)c1ccccc1.[Ti+4]: 97
O=C(O)c1c(Br)c(Br)c(Br)c(Br)c1-c1c2ccc(=O)cc-2oc2cc(O)ccc12: 96
CC(CCC(=O)O)(Nc1ccc([N+](=O)[O-])cc1[N+](=O)[O-])C(=O)O (stereo not drawn): 100
Oc1ccc(Br)cc1-c1nc2cc(Cl)c(Cl)cc2nc1-c1cc(Br)ccc1O: 85

Quote growth inhibition reported for NCCCCC(N)C(=O)Nc1ccc2ccccc2c1 (stereo not drawn) please.
37

Quote growth inhibition reported for O=[N+]([O-])c1ccc(SCc2ccccc2)c2nonc12 please.
99

Quote growth inhibition reported for S=C(N/N=C/c1ccco1)NC12CC3CC(CC(C3)C1)C2 please.
95

Quote growth inhibition reported for COC(=O)C(=O)C(C(=O)c1ccc(F)cc1)c1nc2n(c1O)C(=N)N=N2 (stereo not drawn) please.
46

###

Experiment: NCI Yeast Anticancer Drug Screen. Data for the sgs1 mgt1 strain (AID 161);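 further: 0% = growth of cultures given vehicle only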
Conditions: S. cerevisiae sgs1 mgt1 strain, at 50.0 µM, hits give high values
About 79,000 compounds went through this panel and 15% of them were active in at least one assay; those are over-represented in the sample as a whole.
Reported growth inhibition is given for each of the following compounds.
Numeric only. Scale: %

Record excerpt, results attached:
Cc1ccc2c(c1)C1(SC(C)C(=O)N1c1ccc(F)cc1)C(=O)N2 (stereo unspecified): 98.8
CN1CCN(CC(C(=O)O)(c2ccccc2)c2ccccc2)CC1: -16.6
O=C1CSc2ccccc2-n2cccc21: 61.5
CC(C)C[NH-].CC(C)C[NH-].[Cl][Pt+2]([Cl])([Cl])[Cl]: 89.2
NNC(=O)C(=O)N/N=C(/CCC(=O)NCCc1ccccc1)CC(=O)c1ccccc1: 9.1

Attention now shifts to the item below.
Quote growth inhibition reported for COc1ccc(C2=C(Cl)C(=O)N(c3ccc(Cl)cc3)C(=O)C2(Cl)Cl)cc1 please.
97.1

###

Assay: NCI Yeast Anticancer Drug Screen. Data for the cln2 rad14 strain (AID 165);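 further: 0% = growth equal to vehicle treated cultures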
Settings: S. cerevisiae cln2 rad14 strain, at 5.0 µM (retest, dose inferred, filed as 0.5), hits give high values
The panel holds about 79,000 compounds, 15% with a hit somewhere; the sample as a whole holds those more often.
measured attribute: growth inhibition (%)
Numeric only. Scale: %

CCCC(=O)Oc1ccc(-c2ccccc2)cc1Br: 6
O=C(O)c1ccccc1-c1c2cc([N+](=O)[O-])c(=O)c(Br)c-2oc2c(Br)c(O)c([N+](=O)[O-])cc12: 34
CCN(CC)CC(O)c1c(-c2ccccc2)c(-c2ccccc2)c2n1CCC2 (stereo not drawn): -11
Nc1nc(N)c(C(=O)SCc2ccccc2)nc1Cl: 2

Quote growth inhibition reported for N#C/C(=C1/C(=O)c2ccccc2-c2ccccc21)c1ccccc1 please.
61

Quote growth inhibition reported for COc1ccc(C(=O)C(c2ccc(OC)cc2)C2(O)C(=O)Nc3c(C)cc(Cl)cc32)cc1 (stereo not drawn) please.
3

Quote growth inhibition reported for O=[N+]([O-])c1ccc2c(c1)CCc1ccccc1-2 please.
-1

Quote growth inhibition reported for CN(/N=C\c1ccc(Cl)cc1)C(c1ccc(Cl)cc1)N(C)/N=C/c1ccc(Cl)cc1 (stereo not drawn) please.
3

Quote growth inhibition reported for CC1(C)COC(C)(C(=O)O)OC1 please.
0

Quote growth inhibition reported for C[Si](C)(C)CC(c1ccccc1)C(O)c1ccccc1 (stereo not drawn) please.
0

Quote growth inhibition reported for CCCCOc1ccc(CN2CCOC2=O)cc1 please.
5

Quote growth inhibition reported for NNC(=O)C(=O)N/N=C(/CCC(=O)NCCc1ccccc1)CC(=O)c1ccccc1 please.
-3

Quote growth inhibition reported for CC(=O)Sc1ccc(Br)cc1 please.
-1

Quote growth inhibition reported for C[N+]1(C)C/C(=C\C=C\c2ccccc2)C(=O)/C(=C/C=C/c2ccccc2)C1 please.
0

Quote growth inhibition reported for CC(=O)N(c1ccccc1)C(C)C please.
-1

Quote growth inhibition reported for COc1ccc(C2=C(Cl)C(=O)N(c3ccc(Cl)cc3)C(=O)C2(Cl)Cl)cc1 please.
-10

Quote growth inhibition reported for C1CCC(CC2CCC(NC3=NCCO3)CC2)CC1 (stereo not drawn) please.
-8

Quote growth inhibition reported for OCC1CCc2[nH]c3ccccc3c2C1 (stereo not drawn) please.
-56

Quote growth inhibition reported for O=C1Oc2ccccc2C(=O)/C1=C/N1C(=O)/C(=C/c2ccc([N+](=O)[O-])cc2)SC1=S please.
3

Quote growth inhibition reported for c1ccc(-c2nc3nc4ccccc4nc3nc2-c2ccccn2)nc1 please.
-5

Quote growth inhibition reported for O=C1c2ccccc2C(=O)C2OC12 (stereo not drawn) please.
72

Quote growth inhibition reported for CC#CC(=O)Nc1ccccc1CC(c1c[nH]c2ccccc12)c1c[nH]c2ccccc12 please.
19

Quote growth inhibition reported for COc1ccc(C(C)c2cc3c(cc2O)OCO3)cc1 (stereo not drawn) please.
-23
